B1: library; a variant is named by its letters at N, in order (parent)
chain: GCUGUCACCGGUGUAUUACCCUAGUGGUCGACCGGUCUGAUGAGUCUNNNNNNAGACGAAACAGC

variants of: B1; test: normalized RNA/DNA level without ligand (relative to sTRSVctl = 100) (log10 (% of sTRSVctl)); ligand: hypoxanthine (xanthine aptamer); higher = less ribozyme self-cleavage, higher mRNA level; conditions: HEK293T, reporter: mCherry (pCS4076), ligand present: no
measurementKind: normalized RNA/DNA level without ligand (log10)

1. GAAACC    1.85
2. GCCUUA    1.92
3. GGACGA    1.64
4. AUAGUA    1.75
5. GUAGAU    1.76
6. CUGACU    1.9
7. GCCCUA    1.87
8. CAAGAU    1.76
9. CGAAAU    1.73
10. ACAGAC    1.84
11. AGGCUC    2.01
12. AACUCG    1.58
13. AAUGUA    1.79
14. GUUGGC    1.51
15. UUAGCU    1.89
16. AAAGGU    1.61
17. UUGCAU    1.86
18. ACGAUC    1.89
19. UAAUCC    1.84
20. AUUUGC    1.78
21. CCGCCA    1.94
22. CCGUAU    1.75
23. GGACUG    1.58
24. AGGAGU    1.37
25. CCCACU    1.87
26. CCCGAC    1.84
27. AUUGUA    1.78
28. UGGGCU    1.97
29. GCACUC    1.87
30. UUGCCU    1.99
31. AAGGGG    1.2
32. CAAUCU    1.85
33. GAGAUC    1.83
34. GUCCCG    1.64
35. ACUCCU    1.9
36. UAAGAC    1.82
37. GGGCAC    1.88
38. GUUACU    1.89
39. UCCCUG    1.41
40. AUAUGA    1.7
41. AUAGAA    1.7
42. GGAAAA    1.69
43. GAGAUG    1.14
44. AGCUAG    1.51
45. CCUUAC    1.83
46. GCUACA    1.85
